assay: Pharmacokinetics experiments in CD-1 mice; type: in vivo, mouse; conditions: mouse, plasma, po; gavage 5 mg/kg, CD-1 mice; read-out: Cmax
readout label: Cmax

compound CC#CCn1c(N2CCC[C@@H](N)C2)nc2c1c(=O)n(Cc1nccnc1C#N)c(=O)n2C [Compound I-3] , Cmax observed: 223 ng/mL

----------
Assay: Pharmacokinetics experiments in CD-1 mice
Format: in vivo, mouse
Details: CD-1, mouse, plasma, oral; gavage 5 mg/kg, 4.00 h; read-out: Plasma drug concentration
Source text: Six healthy CD-1 mice of 7-10 weeks old were randomly separated into two groups. […]
readout label: concentration at 4 h (ng/mL)
Answers are plain numbers, in ng/mL.

compound CC#CCn1c(N2CCC[C@@H](N)C2)nc2c1c(=O)n(Cc1nccnc1C#N)c(=O)n2C , concentration at 4 h observed: 145

----------
Biological target: CYP1A2 (Homo sapiens (Human))
Sequence (P05177 whole entry): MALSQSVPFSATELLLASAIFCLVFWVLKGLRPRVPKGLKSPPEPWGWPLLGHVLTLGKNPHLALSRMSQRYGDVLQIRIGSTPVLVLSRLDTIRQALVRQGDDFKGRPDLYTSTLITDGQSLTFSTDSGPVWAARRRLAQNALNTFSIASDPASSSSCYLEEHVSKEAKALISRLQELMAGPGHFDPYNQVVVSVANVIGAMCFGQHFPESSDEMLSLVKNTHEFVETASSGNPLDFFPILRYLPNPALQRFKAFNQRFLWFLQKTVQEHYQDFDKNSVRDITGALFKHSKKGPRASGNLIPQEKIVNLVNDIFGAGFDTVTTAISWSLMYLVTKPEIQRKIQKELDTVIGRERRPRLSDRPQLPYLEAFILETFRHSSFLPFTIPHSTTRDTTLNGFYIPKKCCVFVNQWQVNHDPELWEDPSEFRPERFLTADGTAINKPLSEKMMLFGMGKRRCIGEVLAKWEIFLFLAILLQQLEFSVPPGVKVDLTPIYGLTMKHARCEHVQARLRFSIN
Experiment: biochemical
Format: in vitro ADME
From the text: 1. Test method: human liver microsomes were used to carry out inhibition activity test of the compounds to CYP enzyme. […]
pIC50: −log10 of the molar value.
readout label: pIC50

Let me check: CC#CCn1c(N2CCC[C@@H](N)C2)nc2c1c(=O)n(Cc1nccnc1C#N)c(=O)n2C [Compound I-3] , system CYP1A2 (Homo sapiens (Human)), measured pIC50 is < 4.30

----------
experiment: Pharmacokinetics experiments in CD-1 mice; type: in vivo, mouse; settings: CD-1, mouse, plasma; intravenous injection 2 mg/kg
readout label: AUC(0-inf) (µg·h/mL)
One number for each entry, in µg·h/mL.

molecule CC#CCn1c(N2CCC[C@@H](N)C2)nc2c1c(=O)n(Cc1nccnc1C#N)c(=O)n2C [Compound I-3] , AUC(0-inf) observed: 0.567

----------
target: humanized recombinant DPP8 (Homo sapiens (Human), UniProt Q6V1X1); assay: Drug selectivity experiment in vitro, DPP8
Sequence (Q6V1X1 whole entry): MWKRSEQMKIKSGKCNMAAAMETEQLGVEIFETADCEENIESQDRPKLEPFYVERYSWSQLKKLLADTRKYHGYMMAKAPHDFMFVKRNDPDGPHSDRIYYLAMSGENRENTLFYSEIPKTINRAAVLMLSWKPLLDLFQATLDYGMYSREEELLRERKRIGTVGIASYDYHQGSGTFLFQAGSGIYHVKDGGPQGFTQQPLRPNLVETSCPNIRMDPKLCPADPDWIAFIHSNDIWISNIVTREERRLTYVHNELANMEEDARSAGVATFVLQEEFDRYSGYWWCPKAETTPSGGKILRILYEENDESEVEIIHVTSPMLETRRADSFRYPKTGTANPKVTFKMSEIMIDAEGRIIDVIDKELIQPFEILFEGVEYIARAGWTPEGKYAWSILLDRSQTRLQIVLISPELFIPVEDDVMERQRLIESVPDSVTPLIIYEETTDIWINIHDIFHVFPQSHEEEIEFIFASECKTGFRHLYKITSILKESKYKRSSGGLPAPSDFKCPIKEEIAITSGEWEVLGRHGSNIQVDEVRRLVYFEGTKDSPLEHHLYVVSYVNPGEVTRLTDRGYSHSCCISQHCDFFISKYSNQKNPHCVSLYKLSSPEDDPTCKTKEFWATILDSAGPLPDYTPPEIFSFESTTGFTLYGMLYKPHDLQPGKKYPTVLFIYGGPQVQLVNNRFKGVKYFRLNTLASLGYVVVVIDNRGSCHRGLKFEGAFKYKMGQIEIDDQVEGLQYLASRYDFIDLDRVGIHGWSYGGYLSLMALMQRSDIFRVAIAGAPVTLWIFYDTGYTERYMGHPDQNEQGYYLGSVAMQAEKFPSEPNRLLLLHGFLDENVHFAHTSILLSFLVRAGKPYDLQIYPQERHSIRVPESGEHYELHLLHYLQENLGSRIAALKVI
readout label: IC50

Let me check: CC#CCn1c(N2CCC[C@@H](N)C2)nc2c1c(=O)n(Cc1nccnc1C#N)c(=O)n2C [Compound I-3] , system humanized recombinant DPP8 (Homo sapiens (Human), UniProt Q6V1X1), measured IC50 is > 100 µM

----------
target: CYP2C19 (Homo sapiens (Human))
Sequence (P33261 whole entry): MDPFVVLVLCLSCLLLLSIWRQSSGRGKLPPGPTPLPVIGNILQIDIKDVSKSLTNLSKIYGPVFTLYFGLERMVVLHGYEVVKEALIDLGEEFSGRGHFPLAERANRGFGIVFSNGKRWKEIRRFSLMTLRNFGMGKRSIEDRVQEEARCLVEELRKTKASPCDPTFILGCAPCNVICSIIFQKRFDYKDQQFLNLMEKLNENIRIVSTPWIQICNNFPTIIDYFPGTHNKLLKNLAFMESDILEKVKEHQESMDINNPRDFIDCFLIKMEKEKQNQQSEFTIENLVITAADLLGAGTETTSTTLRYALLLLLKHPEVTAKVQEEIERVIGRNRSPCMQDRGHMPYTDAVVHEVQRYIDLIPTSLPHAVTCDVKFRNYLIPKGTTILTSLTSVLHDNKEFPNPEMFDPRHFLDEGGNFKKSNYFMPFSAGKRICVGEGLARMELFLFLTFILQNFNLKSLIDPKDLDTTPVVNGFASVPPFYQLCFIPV
readout label: IC50

compound CC#CCn1c(N2CCC[C@@H](N)C2)nc2c1c(=O)n(Cc1nccnc1C#N)c(=O)n2C , IC50 observed: > 50 µM

----------
experiment: Pharmacokinetics experiments in CD-1 mice; assay type: in vivo, mouse; settings: CD-1, mouse, plasma; intravenous injection 2 mg/kg, 0.250 h; read-out: Plasma drug concentration
readout label: concentration at 0.25 h (ng/mL)
Answers are plain numbers, in ng/mL.

compound CC#CCn1c(N2CCC[C@@H](N)C2)nc2c1c(=O)n(Cc1nccnc1C#N)c(=O)n2C [Compound I-3] , concentration at 0.25 h observed: 529

----------
assay: Pharmacokinetics experiments in CD-1 mice; type: in vivo, mouse; conditions: mouse, plasma; intravenous injection 2 mg/kg, CD-1 mice
readout label: half-life (h)
Numbers only, in h.

molecule CC#CCn1c(N2CCC[C@@H](N)C2)nc2c1c(=O)n(Cc1nccnc1C#N)c(=O)n2C , half-life observed: 1.09

----------
target: CYP2C19 (Homo sapiens (Human)); test: in vitro; format: in vitro ADME; details: human, microsomes
readout label: inhibition at 50 µM (%)
One number for each entry, in %.

compound CC#CCn1c(N2CCC[C@@H](N)C2)nc2c1c(=O)n(Cc1nccnc1C#N)c(=O)n2C [Compound I-3] , inhibition at 50 µM observed: 2.9
